What IC50 was measured for each of the following?
- assayedSystem: hLIFR (recombinant human LIFR, His Tag) (Homo sapiens)
- Sequence (P42702 45-833 limits assumed): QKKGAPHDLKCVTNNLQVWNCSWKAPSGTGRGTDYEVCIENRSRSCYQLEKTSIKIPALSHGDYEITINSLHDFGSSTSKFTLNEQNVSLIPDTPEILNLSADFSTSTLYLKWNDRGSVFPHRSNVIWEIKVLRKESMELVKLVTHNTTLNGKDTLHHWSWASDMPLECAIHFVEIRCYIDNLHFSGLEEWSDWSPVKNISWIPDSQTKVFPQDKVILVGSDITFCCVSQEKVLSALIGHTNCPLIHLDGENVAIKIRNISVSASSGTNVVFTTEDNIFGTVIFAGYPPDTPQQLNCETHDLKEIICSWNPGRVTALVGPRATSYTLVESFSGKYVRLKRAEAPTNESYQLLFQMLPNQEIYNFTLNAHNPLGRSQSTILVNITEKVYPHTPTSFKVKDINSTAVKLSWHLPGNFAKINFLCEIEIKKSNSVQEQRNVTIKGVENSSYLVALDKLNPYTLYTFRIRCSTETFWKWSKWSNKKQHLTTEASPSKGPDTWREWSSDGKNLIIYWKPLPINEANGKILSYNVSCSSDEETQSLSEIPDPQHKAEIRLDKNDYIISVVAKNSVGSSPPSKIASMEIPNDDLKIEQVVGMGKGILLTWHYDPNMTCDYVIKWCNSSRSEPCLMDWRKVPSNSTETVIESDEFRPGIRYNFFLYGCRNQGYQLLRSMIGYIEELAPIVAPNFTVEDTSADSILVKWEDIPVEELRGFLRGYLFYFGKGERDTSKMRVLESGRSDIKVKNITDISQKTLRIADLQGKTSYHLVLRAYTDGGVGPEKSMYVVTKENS
- assayInfo: AlphaScreen, inhibition of LIFR/LIF binding
Respond with the figure and its unit, in that order.

Previously resolved entries follow.
{"columns": ["compoundStructureString", "obsValue"],
 "data": [
  ["C[C@H](CCC(=O)O)[C@H]1CC[C@H]2[C@@H]3CC[C@@H]4C[C@H](O)CC[C@]4(C)[C@H]3C[C@H](O)[C@]12C", "18.4 µM"],
  ["C[C@H](CCC(=O)NCC(=O)O)[C@H]1CC[C@H]2[C@@H]3CC[C@@H]4C[C@H](O)CC[C@]4(C)[C@H]3CC[C@]12C", "23 µM"],
  ["C[C@H](CCC(=O)NCC(=O)O)[C@H]1CC[C@H]2[C@@H]3[C@H](O)C[C@@H]4C[C@H](O)CC[C@]4(C)[C@H]3CC[C@]12C", "50.6 µM"]
]}

Let's switch to this molecule now.
Query: State measured IC50 of the molecule "C[C@H](CCC(=O)NCCS(=O)(=O)O)[C@H]1CC[C@H]2[C@@H]3[C@H](O)C[C@@H]4C[C@H](O)CC[C@]4(C)[C@H]3CC[C@]12C" with hLIFR (recombinant human LIFR, His Tag) (Homo sapiens).
Reply: 38 µM

Origin of measurements: paper doi:10.1101/2023.09.30.560269v1
